target: T7 RNA Polymerase (Escherichia phage T7); experiment: Detection of the efficiency of mRNA capping synthesis (in vitro transcription, product yield); type: biochemical; settings: 20 µL mRNA synthesis reaction system, method of Example 20 (Table 4)
Sequence (P00573 whole entry): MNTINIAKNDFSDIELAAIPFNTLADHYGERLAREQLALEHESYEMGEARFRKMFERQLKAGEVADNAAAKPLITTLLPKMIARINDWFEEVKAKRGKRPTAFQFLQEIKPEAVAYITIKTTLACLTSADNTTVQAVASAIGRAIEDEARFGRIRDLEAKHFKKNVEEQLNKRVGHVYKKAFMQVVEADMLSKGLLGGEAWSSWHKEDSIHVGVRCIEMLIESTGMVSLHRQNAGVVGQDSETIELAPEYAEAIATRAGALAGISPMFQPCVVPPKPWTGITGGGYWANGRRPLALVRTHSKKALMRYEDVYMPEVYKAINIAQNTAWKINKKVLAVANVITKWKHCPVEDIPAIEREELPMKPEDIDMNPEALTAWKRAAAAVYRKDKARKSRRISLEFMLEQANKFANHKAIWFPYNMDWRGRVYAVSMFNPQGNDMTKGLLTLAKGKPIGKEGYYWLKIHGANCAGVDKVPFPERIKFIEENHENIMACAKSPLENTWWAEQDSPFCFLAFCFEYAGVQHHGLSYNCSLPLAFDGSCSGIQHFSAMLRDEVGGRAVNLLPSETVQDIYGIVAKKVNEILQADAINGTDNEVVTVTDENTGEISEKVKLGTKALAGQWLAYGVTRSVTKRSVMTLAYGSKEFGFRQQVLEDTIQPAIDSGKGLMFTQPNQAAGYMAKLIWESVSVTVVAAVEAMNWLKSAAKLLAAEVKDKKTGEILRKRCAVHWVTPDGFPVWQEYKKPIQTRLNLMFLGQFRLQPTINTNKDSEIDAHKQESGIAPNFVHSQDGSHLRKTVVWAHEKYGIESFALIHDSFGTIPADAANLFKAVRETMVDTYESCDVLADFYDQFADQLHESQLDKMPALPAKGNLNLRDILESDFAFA
Kindly state Final product mass for each of the entries shown.
// units = µg; emit number, no label

Ask: Reported Final product mass for COCC1(F)C(COP(=O)(O)OP(O)(=S)OP(=O)(O)OCC2OC(n3cnc4c(N)ncnc43)C(OC)C2OP(=O)([O-])OCC2OC(n3cnc4c(=O)[nH]c(N)nc43)C(O)C2O)OC(n2c[n+](C)c3c(=O)[nH]c(N)nc32)C1O (stereo not shown) : what is it?
Result: 91

Ask: Check COC1C(OP(=O)([O-])OCC2OC(n3cnc4c(=O)[nH]c(N)nc43)C(O)C2O)C(COP(=O)(O)OP(=O)(O)OP(=O)(O)OCC2OC(n3c[n+](C)c4c(=O)[nH]c(N)nc43)C(O)C2(F)CN=[N+]=[N-])OC1n1cnc2c(N)ncnc21 (stereo not shown) too.
Result: 113

Ask: Check CNc1ncnc2c1ncn2C1OC(COP(=O)(O)OP(=O)(O)OP(=O)(O)OCC2OC(n3c[n+](C)c4c(=O)[nH]c(N)nc43)C(O)C2(C)F)C(OP(=O)([O-])OCC2OC(n3cnc4c(=O)[nH]c(N)nc43)C(O)C2O)C1OC (stereo not shown) too.
Result: 111

Ask: Check CO[C@@H]1[C@H](OP(=O)([O-])OC[C@H]2O[C@@H](n3cnc4c(=O)[nH]c(N)nc43)[C@H](O)[C@@H]2O)[C@@H](COP(=O)(O)OP(=O)(O)OP(=O)(O)OC[C@H]2O[C@@H](n3c[n+](C)c4c(=O)[nH]c(N)nc43)[C@H](O)[C@@H]2OC)O[C@H]1n1cnc2c(N)ncnc21 [Compound N-7413, reference compound] too.
Result: 122
